# ASSAYED_SYSTEM: human Kv7.2/7.3 channels (Homo sapiens, UniProt O43525+O43526)
# Construct: expressed in transfected cells
# Sequence (O43525 whole entry): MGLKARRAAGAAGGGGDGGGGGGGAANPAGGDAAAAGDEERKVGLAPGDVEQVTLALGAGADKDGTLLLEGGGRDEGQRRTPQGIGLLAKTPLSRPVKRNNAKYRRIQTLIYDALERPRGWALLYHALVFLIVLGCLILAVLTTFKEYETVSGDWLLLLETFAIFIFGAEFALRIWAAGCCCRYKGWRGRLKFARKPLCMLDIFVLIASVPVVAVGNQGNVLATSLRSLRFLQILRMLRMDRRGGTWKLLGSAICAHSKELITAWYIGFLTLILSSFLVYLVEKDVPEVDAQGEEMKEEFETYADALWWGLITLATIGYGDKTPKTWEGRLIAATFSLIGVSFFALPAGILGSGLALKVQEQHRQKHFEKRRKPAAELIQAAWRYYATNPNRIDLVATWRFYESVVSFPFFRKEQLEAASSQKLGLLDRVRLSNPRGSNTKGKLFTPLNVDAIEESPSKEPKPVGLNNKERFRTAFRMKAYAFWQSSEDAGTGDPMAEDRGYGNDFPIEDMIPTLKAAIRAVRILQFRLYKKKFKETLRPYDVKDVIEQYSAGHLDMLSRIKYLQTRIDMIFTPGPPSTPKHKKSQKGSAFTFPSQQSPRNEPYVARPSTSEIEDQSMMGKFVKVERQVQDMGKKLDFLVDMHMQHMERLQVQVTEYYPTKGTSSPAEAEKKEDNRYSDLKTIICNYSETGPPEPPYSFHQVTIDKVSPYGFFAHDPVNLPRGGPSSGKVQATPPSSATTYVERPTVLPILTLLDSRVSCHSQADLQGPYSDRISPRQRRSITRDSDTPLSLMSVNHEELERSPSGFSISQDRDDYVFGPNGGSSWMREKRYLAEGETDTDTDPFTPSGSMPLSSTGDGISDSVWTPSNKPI
# Sequence (O43526 whole entry): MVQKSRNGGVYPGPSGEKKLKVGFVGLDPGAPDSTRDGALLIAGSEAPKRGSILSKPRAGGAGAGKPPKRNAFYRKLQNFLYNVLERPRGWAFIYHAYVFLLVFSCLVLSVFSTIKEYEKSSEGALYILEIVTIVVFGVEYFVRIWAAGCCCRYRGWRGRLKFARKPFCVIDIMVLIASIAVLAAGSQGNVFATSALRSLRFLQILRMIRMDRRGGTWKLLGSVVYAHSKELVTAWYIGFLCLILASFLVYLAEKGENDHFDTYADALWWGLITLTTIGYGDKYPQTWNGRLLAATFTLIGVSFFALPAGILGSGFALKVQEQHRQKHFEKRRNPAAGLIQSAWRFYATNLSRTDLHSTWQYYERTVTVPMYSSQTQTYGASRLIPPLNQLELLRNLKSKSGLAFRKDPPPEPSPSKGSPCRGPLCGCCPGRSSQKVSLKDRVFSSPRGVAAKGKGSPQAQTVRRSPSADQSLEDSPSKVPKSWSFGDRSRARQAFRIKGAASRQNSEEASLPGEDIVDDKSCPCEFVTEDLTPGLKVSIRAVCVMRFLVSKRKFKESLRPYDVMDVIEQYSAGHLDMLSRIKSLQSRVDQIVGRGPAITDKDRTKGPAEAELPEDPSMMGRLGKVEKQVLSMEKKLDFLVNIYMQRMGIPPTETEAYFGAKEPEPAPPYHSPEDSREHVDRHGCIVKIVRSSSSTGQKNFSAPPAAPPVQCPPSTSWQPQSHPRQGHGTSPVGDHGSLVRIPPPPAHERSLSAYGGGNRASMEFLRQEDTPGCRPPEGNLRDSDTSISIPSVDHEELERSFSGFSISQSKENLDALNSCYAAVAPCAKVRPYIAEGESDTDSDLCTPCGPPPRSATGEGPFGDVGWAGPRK
# METHOD_SUMMARY: Assessment of recombinantly expressed human Kv7.2/7.3 channel activation on SyncroPatch automated patch clamp platform
# Assay type: cell-based
# ASSAY_CONTEXT: concentration-dependent shift in G-V midpoint of activation; CHO cells stably expressing human Kv7.2/7.3; SyncroPatch; read-out: EC50 (95% CI)
Record form. Attribute: EC50. Fill in for each entry.

get_value(item= CCOC(=O)Nc1ccc(N2CCc3ccc(F)cc3C2)c(F)c1N , readout=EC50) returns 0.1 to 1 µM

get_value(item= C=CCN(Cc1ccc(F)cc1)c1ccc(NC(=O)OCC)c(N)c1 , readout=EC50) returns 0.1 to 1 µM

get_value(item= C#CCN(Cc1cccc(C(F)(F)F)c1)c1ccc(NC(=O)OCC)c(N)c1 , readout=EC50) returns 0.1 to 1 µM

get_value(item= CCOC(=O)Nc1ccc(N2CCc3ccc(C(F)(F)F)cc3C2)c(F)c1N , readout=EC50) returns 0.1 to 1 µM

get_value(item= C#CCN(Cc1ccc(F)cc1)c1ccc(NC(=O)OCC)c(N)c1 [Compound 10, reference compound] , readout=EC50) returns 1 to 5 µM

get_value(item= CCOC(=O)Nc1ccc(N2CCc3ccc(F)cc3C2)cc1N , readout=EC50) returns 1 to 5 µM

get_value(item= C=CCN(Cc1ccc(F)cc1)c1ccc(NC(=O)OCC)c(N)c1F , readout=EC50) returns 1 to 5 µM

get_value(item= C#CCN(Cc1ccc(F)cc1)c1ccc(NC(=O)OCC)c(N)c1F , readout=EC50) returns 0.1 to 1 µM

get_value(item= CCOC(=O)Nc1ccc(N2CCc3cc(F)ccc3C2)c(F)c1N , readout=EC50) returns 0.1 to 1 µM

get_value(item= C#CCN(Cc1cccc(C(F)(F)F)c1)c1ccc(NC(=O)OCC)c(N)c1F , readout=EC50) returns 0.1 to 1 µM
